Record form. Attribute: Anti-CD28 Fab (SEQ ID NOs: 202, 203) signal. Fill in for each entry.
study-system: T1, anti-CD28 Fab (SEQ ID NOs: 202, 203)
T1 construct: biotinylated and captured on neutravidin coated plates in the phage ELISA
T1 sequence (VH, as listed by the source, chain 1 of 2): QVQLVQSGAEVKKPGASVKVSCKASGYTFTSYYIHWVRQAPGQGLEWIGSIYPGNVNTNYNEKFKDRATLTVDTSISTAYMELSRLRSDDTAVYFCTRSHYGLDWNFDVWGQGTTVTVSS
T1 sequence (VL, as listed by the source, chain 2 of 2): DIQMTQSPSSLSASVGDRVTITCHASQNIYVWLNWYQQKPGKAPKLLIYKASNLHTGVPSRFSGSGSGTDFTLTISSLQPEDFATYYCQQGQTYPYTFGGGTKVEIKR
test-protocol: phage binding ELISA; biotinylated Fab on neutravidin plate;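 also: clonal phage supernatants added to Fab wells pretreated with CD28 antigen or with blocking buffer only, bound phage read out via HRP-linked anti-M13 antibody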
# output: bare number, no unit

Quick one: Anti-CD28 Fab (SEQ ID NOs: 202, 203) signal of YCDGHAAEFMMKCL [Phage-423] ?
1.72

Repeat for the following binder: YCEGHLPEYMMKCL [Phage-329]
1.88

Repeat for the following binder: YCDGHAAEYMDKCL [Phage-428]
1.72

Repeat for the following binder: YCEGHLPEYMQKCL [Phage-404]
1.75

Repeat for the following binder: YCDGHAWEYMTKCL [Phage-448]
1.69

Repeat for the following binder: YCEGHLSEYMSKCL [Phage-324]
1.88

Repeat for the following binder: YCDGHIPEYLAKCL [Phage-391]
1.76

Repeat for the following binder: YCDGHAEEYLWKCL [Phage-418]
1.73
